- Assayed target: hEP1 (Homo sapiens (Human))
- Sequence (P34995 whole entry): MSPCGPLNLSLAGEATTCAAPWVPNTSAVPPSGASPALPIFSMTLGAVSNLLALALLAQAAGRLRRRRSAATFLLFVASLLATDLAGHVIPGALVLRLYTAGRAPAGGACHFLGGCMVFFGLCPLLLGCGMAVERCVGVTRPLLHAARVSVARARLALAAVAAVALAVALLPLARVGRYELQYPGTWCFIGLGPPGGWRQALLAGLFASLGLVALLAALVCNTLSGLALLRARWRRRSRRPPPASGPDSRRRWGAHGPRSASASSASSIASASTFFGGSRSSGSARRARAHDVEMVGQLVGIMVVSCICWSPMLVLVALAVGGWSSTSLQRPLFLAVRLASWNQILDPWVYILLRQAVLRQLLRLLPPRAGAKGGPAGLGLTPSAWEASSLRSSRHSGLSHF
Field 'label' (enum: 1 / 0). Set to 1 when IC50 is strictly under 600 nM; else 0.

Solved cases below.
- CC1(C)C(=O)[C@H](C/C=C\CCCC(=O)O)[C@@H](/C=C/C(O)CCc2ccccc2)[C@@H]1O (single isomer, unassigned) [Compound 53]: 0
- COC(=O)CCC/C=C\C[C@H]1C(=O)C(C)(C)[C@@H](O)[C@@H]1/C=C/C(O)CCc1ccccc1 (single isomer, unassigned) [Compound 50]: 0
- CC1(C)C(=O)[C@H](C/C=C\CCCC(=O)O)[C@@H](/C=C/C(O)Cc2ccccc2)[C@@H]1O (single isomer, unassigned) [Compound 46]: 1
- CC1(C)C(=O)[C@H](C/C=C\CCCC(=O)O)[C@@H](/C=C/C(O)CCc2ccccc2)[C@@H]1O (single isomer, unassigned) [Compound 52]: 1

# next compound below
API: query returns whether the compound falls strictly under 600 nM in IC50. Query: CC1(C)C(=O)[C@H](C/C=C\CCCC(=O)O)[C@@H](/C=C/C(O)Cc2cc3ccccc3s2)[C@@H]1O (single isomer, unassigned) [Compound 54] 1

---

- Assayed target: hEP4 (Homo sapiens (Human), UniProt P35408)
- Sequence (P35408 whole entry, looked up): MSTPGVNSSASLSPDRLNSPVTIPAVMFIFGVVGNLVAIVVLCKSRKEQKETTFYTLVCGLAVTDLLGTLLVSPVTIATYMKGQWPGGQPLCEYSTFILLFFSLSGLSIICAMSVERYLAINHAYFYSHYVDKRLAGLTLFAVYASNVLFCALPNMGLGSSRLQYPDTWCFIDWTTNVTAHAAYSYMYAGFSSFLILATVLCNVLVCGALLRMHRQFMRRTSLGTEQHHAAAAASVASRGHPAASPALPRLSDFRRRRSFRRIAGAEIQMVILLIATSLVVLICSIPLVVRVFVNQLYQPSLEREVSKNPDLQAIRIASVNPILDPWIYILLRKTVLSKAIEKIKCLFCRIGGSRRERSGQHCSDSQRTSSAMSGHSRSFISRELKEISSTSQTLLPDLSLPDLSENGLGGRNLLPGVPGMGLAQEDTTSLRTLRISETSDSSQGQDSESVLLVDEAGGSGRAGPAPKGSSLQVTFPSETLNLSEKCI
- Run description: FLIPR calcium signal, HEK-293(EBNA) cells expressing hEP4/Gqs5
- Study conditions: bottom number in Table 2, read-out: hEP4 functional EC50
pEC50: −log10 of the molar value.
So basically: pEC50 at 8 or higher? That is true (1). Lower than 8? That is false (0).

Reference set, count: 2
• COC(=O)CCC/C=C\C[C@H]1C(=O)C(C)(C)[C@@H](O)[C@@H]1/C=C/C(O)CCc1sc2ccccc2c1Cl (single isomer, unassigned) [Compound 39] = false (0)
• CCCCC[C@H](O)/C=C/[C@@H]1[C@@H](C/C=C\CCCC(=O)OC)C(=O)C(C)(C)[C@H]1O [Compound 45] = false (0)

Reported pEC50 reaches at least 8 for CC1(C)C(=O)[C@H](C/C=C\CCCC(=O)O)[C@@H](/C=C/C(O)Cc2cc3ccccc3s2)[C@@H]1O (single isomer, unassigned) [Compound 54] ? true (1)

Form field: pEC50 at least 8? Entry: CC1(C)C(=O)[C@H](SCCCSCC(=O)O)[C@@H](/C=C/C(O)CCc2sc3ccccc3c2Cl)[C@@H]1O (single isomer, unassigned) [Compound 23] true (1)

Form field: pEC50 at least 8? Entry: CC1(C)C(=O)[C@H](C/C=C\CCCC(=O)O)[C@@H](/C=C/C(O)CCc2sc3ccccc3c2Cl)[C@@H]1O (single isomer, unassigned) [Compound 40] true (1)

Threshold query (pEC50 >= 8) on COC(=O)CSCCCS[C@H]1C(=O)C(C)(C)[C@@H](O)[C@@H]1/C=C/C(O)CCc1sc2ccccc2c1Cl (single isomer, unassigned) [Compound 22] false (0)

---

Each entry below carries its reported log10 of IC50.
- Assayed target: UniProt:P35408
- Run description: Radioligand binding ([3H]PGE2), HEK-293 cell membranes expressing EP4 receptor
- Study conditions: top number in Table 2
Values below are the log10 of the recorded IC50, with µM as the unit.

• CC1(C)C(=O)[C@H](CC#CCCCC(=O)O)[C@@H](/C=C/C(O)CCc2sc3ccccc3c2Cl)[C@@H]1O (single isomer, unassigned) [Compound 36] = -0.70
• CC1(C)C(=O)[C@H](SCCCSCC(=O)O)[C@@H](/C=C/C(O)CCc2sc3ccccc3c2Cl)[C@@H]1O (single isomer, unassigned) [Compound 23] = -1.36
• CCCCC[C@H](O)/C=C/[C@@H]1[C@@H](C/C=C\CCCC(=O)O)C(=O)C(C)(C)[C@H]1O = -2.26
• CC1(C)C(=O)[C@H](C/C=C\CCCC(=O)O)[C@@H](/C=C/C(O)CCc2sc3ccccc3c2Cl)[C@@H]1O (single isomer, unassigned) [Compound 41] = -1.70
• CC1(C)C(=O)[C@H](C/C=C\CCCC(=O)O)[C@@H](/C=C/C(O)Cc2ccccc2)[C@@H]1O (single isomer, unassigned) [Compound 47] = -1.12
• COC(=O)CCC/C=C\C[C@H]1C(=O)C(C)(C)[C@@H](O)[C@@H]1/C=C/C(O)CCc1ccccc1 (single isomer, unassigned) [Compound 50] = 0.38
• CC1(C)C(=O)[C@H](CC#CCCCC(=O)O)[C@@H](/C=C/C(O)Cc2cc3ccccc3s2)[C@@H]1O (single isomer, unassigned) = -0.59
• CC1(C)C(=O)[C@H](C/C=C\CCCC(=O)O)[C@@H](/C=C/C(O)Cc2cc3ccccc3s2)[C@@H]1O (single isomer, unassigned) [Compound 55] = -0.51

Dear colleague, I am looking for the recorded log10 of IC50 of the following molecule: CC1(C)C(=O)[C@H](SCCCSCC(=O)O)[C@@H](/C=C/C(O)CCc2sc3ccccc3c2Cl)[C@@H]1O (single isomer, unassigned) [Compound 24] -1.59

May I ask what log10 of IC50 has been recorded for CC1(C)C(=O)[C@H](C/C=C\CCCC(=O)O)[C@@H](/C=C/C(O)CCc2sc3ccccc3c2Cl)[C@@H]1O (single isomer, unassigned) [Compound 40] ? -0.70

The reported numbers originate from patent US9156810B2.
